This collection of values is drawn from the CombiSolv-Exp solvation set (Vermeire and Green 2021).

assay: solvent given as SMILES; conditions: in CCOC(C)=O
Doc: threshold -8 kcal/mol (exclusive). Items with solvation free energy, 298 K beneath it return Satisfied; others return Not satisfied.

// below: answered molecules
- molecule: "O=C(O)c1cccc([N+](=O)[O-])c1"
  classLabel: "Satisfied"
- molecule: "C[N+](=O)[O-]"
  classLabel: "Not satisfied"
- molecule: "NC(=O)c1ccccc1O"
  classLabel: "Satisfied"
- molecule: "CN(C)C=O"
  classLabel: "Not satisfied"
- molecule: "CCCCCCCCC"
  classLabel: "Not satisfied"
- molecule: "CCc1ccc2c(c1)C(=O)c1ccccc1C2=O"
  classLabel: "Satisfied"
- molecule: "CCCCCCC"
  classLabel: "Not satisfied"
- molecule: "CCCCCCCC"
  classLabel: "Not satisfied"
- molecule: "c1cc2ccc3cccc4ccc(c1)c2c34"
  classLabel: "Satisfied"
- molecule: "CCCCl"
  classLabel: "Not satisfied"

Exam item: Lab note: solvation free energy, 298 K threshold -8 kcal/mol. Does this molecule come in strictly under it? C1CCOC1
Marked response: Not satisfied

Exam item: Lab note: solvation free energy, 298 K threshold -8 kcal/mol. Does this molecule come in strictly under it? O=[N+]([O-])c1ccc(Cl)c(Cl)c1
Marked response: Satisfied

Exam item: Lab note: solvation free energy, 298 K threshold -8 kcal/mol. Does this molecule come in strictly under it? C=CC(C)C
Marked response: Not satisfied

Exam item: Lab note: solvation free energy, 298 K threshold -8 kcal/mol. Does this molecule come in strictly under it? c1ccc2cc3ccccc3cc2c1
Marked response: Satisfied

Exam item: Lab note: solvation free energy, 298 K threshold -8 kcal/mol. Does this molecule come in strictly under it? O=c1[nH]c2ccccc2n1C1CCN(CCCC(c2ccc(F)cc2)c2ccc(F)cc2)CC1
Marked response: Satisfied

* * *

test: solvent given as SMILES; settings: in Nc1ccccc1
# solvation free energy, 298 K annotations
Provide the reading as a plain figure in kcal/mol.

Take a look at these entries with their results.
- structureSmilesString: "CCCCCCCC"
  readoutUnit: "kcal/mol"
  solvation free energy, 298 K: -3.52
- structureSmilesString: "CCCCCCC"
  readoutUnit: "kcal/mol"
  solvation free energy, 298 K: -2.99
- structureSmilesString: "C[N+](=O)[O-]"
  readoutUnit: "kcal/mol"
  solvation free energy, 298 K: -5.08
- structureSmilesString: "CCCCCCCCC"
  readoutUnit: "kcal/mol"
  solvation free energy, 298 K: -4.09
- structureSmilesString: "CCO"
  readoutUnit: "kcal/mol"
  solvation free energy, 298 K: -4.38

Exam item: Read off the recorded solvation free energy, 298 K for CC(C)CCC(C)C
Marked response: -3.11

Exam item: Read off the recorded solvation free energy, 298 K for CCCCCC
Marked response: -2.36

Exam item: Read off the recorded solvation free energy, 298 K for CC(C)C(C)C(C)C
Marked response: -3.27

Exam item: Read off the recorded solvation free energy, 298 K for CCCCC
Marked response: -1.89

Exam item: Read off the recorded solvation free energy, 298 K for CC=C(C)C
Marked response: -2.3

Exam item: Read off the recorded solvation free energy, 298 K for C=CC
Marked response: -1.08

* * *

experiment: solvent given as SMILES; details: in O
reportedMetric: solvation free energy, 298 K (kcal/mol)
Provide the reading as a plain figure in kcal/mol.

Take a look at these entries with their results.
- molecule: "CCO"
  solvation free energy, 298 K [kcal/mol]: -5.01
- molecule: "O=C(O)c1cccc(O)c1"
  solvation free energy, 298 K [kcal/mol]: -9.55
- molecule: "C1CCOC1"
  solvation free energy, 298 K [kcal/mol]: -3.49
- molecule: "CCCOC=O"
  solvation free energy, 298 K [kcal/mol]: -2.51

Exam item: Read off the recorded solvation free energy, 298 K for Cc1cccnc1C
Marked response: -4.82

Exam item: Read off the recorded solvation free energy, 298 K for CC(C)C(C)C(C)C
Marked response: 2.57

Exam item: Read off the recorded solvation free energy, 298 K for CCCCCCCCCC(=O)c1c(C)[nH]n(-c2ccccc2)c1=O
Marked response: -8.46

Exam item: Read off the recorded solvation free energy, 298 K for CC(C)(C)c1ccc(O)cc1
Marked response: -5.91

Exam item: Read off the recorded solvation free energy, 298 K for CCCCC(=O)OCC
Marked response: -2.49

* * *

assay: solvent given as SMILES; settings: in Cc1cccc(C)c1
reportedMetric: solvation free energy, 298 K (kcal/mol)
Provide the reading as a plain figure in kcal/mol.

Take a look at these entries with their results.
- molecule: "CCCCCC"
  readoutUnit: "kcal/mol"
  solvation free energy, 298 K: -3.85
- molecule: "CC(F)F"
  readoutUnit: "kcal/mol"
  solvation free energy, 298 K: -1.63
- molecule: "Oc1ccccc1F"
  readoutUnit: "kcal/mol"
  solvation free energy, 298 K: -5.89
- molecule: "CC(=O)C1COCCOCCOCCOCCOc2ccccc2O1 (configuration not stated)"
  readoutUnit: "kcal/mol"
  solvation free energy, 298 K: -19.2
- molecule: "CC(C)(c1ccc(O)cc1)c1ccc(O)cc1"
  readoutUnit: "kcal/mol"
  solvation free energy, 298 K: -15.5

Exam item: Read off the recorded solvation free energy, 298 K for c1ccc2cc3ccccc3cc2c1
Marked response: -11.3

Exam item: Read off the recorded solvation free energy, 298 K for C1COCCOCCOCCOCCOCCO1
Marked response: -12.9

Exam item: Read off the recorded solvation free energy, 298 K for CCOC(C)=O
Marked response: -4.15

Exam item: Read off the recorded solvation free energy, 298 K for CCC(C)O (configuration not stated)
Marked response: -4.14

Exam item: Read off the recorded solvation free energy, 298 K for C=C(C)C
Marked response: -2.33

Exam item: Read off the recorded solvation free energy, 298 K for Oc1ccccc1
Marked response: -6.78

Exam item: Read off the recorded solvation free energy, 298 K for Oc1ccc(Cl)cc1Cl
Marked response: -7.56

Exam item: Read off the recorded solvation free energy, 298 K for Oc1cccc(O)c1
Marked response: -8.33

Exam item: Read off the recorded solvation free energy, 298 K for CCO
Marked response: -3

* * *

assay: solvent given as SMILES; conditions: in CCCCCCC
# solvation free energy, 298 K annotations
Give the figure together with its unit, number first.

- structureSmilesString: "Brc1ccc(Br)cc1"
  reportedMetric: "solvation free energy, 298 K"
  experimentalValue: "-7.55 kcal/mol"
- structureSmilesString: "CC#N"
  reportedMetric: "solvation free energy, 298 K"
  experimentalValue: "-2.28 kcal/mol"
- structureSmilesString: "CCCCCCCCC"
  reportedMetric: "solvation free energy, 298 K"
  experimentalValue: "-6.06 kcal/mol"
- structureSmilesString: "CCC(=O)OC"
  reportedMetric: "solvation free energy, 298 K"
  experimentalValue: "-3.63 kcal/mol"
- structureSmilesString: "CCCCCN"
  reportedMetric: "solvation free energy, 298 K"
  experimentalValue: "-4.79 kcal/mol"
- structureSmilesString: "CCCCCCCN"
  reportedMetric: "solvation free energy, 298 K"
  experimentalValue: "-6.22 kcal/mol"

Exam item: Read off the recorded solvation free energy, 298 K for Oc1ccccc1F
Marked response: -4.7 kcal/mol

Exam item: Read off the recorded solvation free energy, 298 K for CCI
Marked response: -3.68 kcal/mol

Exam item: Read off the recorded solvation free energy, 298 K for CCCCl
Marked response: -3.27 kcal/mol

* * *

test: solvent given as SMILES; conditions: in CS(C)=O
reportedMetric: solvation free energy, 298 K (kJ/mol)
Provide the reading as a plain figure in kJ/mol.

Take a look at these entries with their results.
- structureSmilesString: "CCI"
  reportedMetric: "solvation free energy, 298 K"
  experimentalValue: -16
- structureSmilesString: "CC(C)C(C)C(C)C"
  reportedMetric: "solvation free energy, 298 K"
  experimentalValue: -11
- structureSmilesString: "CCOC(C)=O"
  reportedMetric: "solvation free energy, 298 K"
  experimentalValue: -16.2
- structureSmilesString: "CCCCC"
  reportedMetric: "solvation free energy, 298 K"
  experimentalValue: -5.9
- structureSmilesString: "CCOCC"
  reportedMetric: "solvation free energy, 298 K"
  experimentalValue: -9.2

Exam item: Read off the recorded solvation free energy, 298 K for Cc1ccc(C(C)C)cc1
Marked response: -23.2

Exam item: Read off the recorded solvation free energy, 298 K for CCCCCCC
Marked response: -9.5

Exam item: Read off the recorded solvation free energy, 298 K for C1CCCCCCC1
Marked response: -16.1

Exam item: Read off the recorded solvation free energy, 298 K for CCCCCCCC
Marked response: -11.7

* * *

assay: solvent given as SMILES; conditions: in C1CCOC1
# solvation free energy, 298 K annotations
Provide the reading as a plain figure in kcal/mol.

- molecule: "CCOC(C)=O"
  experimentalValue: -4.56
- molecule: "CCCCl"
  experimentalValue: -3.88

Exam item: Read off the recorded solvation free energy, 298 K for COc1ccc(C(=O)O)cc1
Marked response: -12.7

Exam item: Read off the recorded solvation free energy, 298 K for CCC(=O)OC
Marked response: -4.45

Exam item: Read off the recorded solvation free energy, 298 K for CC(C)CCC(C)C
Marked response: -4.85
